Reference source: patent US20230086702A1

- SYSTEM NAME: LZK (Homo sapiens, UniProt O43283)
- Construct: 10 nM LZK, catalytic domain, Carna Biosiences in assay buffer; purchased Carna Biosciences ('Carna Biosiences' [sic])
- Sequence (O43283 168-409 limits assumed): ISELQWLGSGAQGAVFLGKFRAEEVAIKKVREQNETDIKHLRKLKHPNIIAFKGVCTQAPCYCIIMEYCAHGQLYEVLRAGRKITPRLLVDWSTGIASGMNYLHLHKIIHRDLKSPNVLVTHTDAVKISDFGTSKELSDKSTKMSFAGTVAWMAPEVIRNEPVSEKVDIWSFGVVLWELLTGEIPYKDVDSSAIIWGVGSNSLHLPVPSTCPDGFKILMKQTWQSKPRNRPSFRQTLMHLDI
- EXPERIMENTAL DETAILS: LZK biochemical assay (TR-FRET, MKK7 phosphorylation)
Each entry below carries its recorded IC50.
MEASURED METRIC: IC50 (µM)

COMPOUND | MEASURED METRIC | UNIT | RECORDED NUMBER
CCC(c1ccc(C(F)(F)F)nc1)n1cc(-c2cc(-c3ccc(C(F)(F)F)nc3)c3nc(N)nn3c2)cn1 (racemic) [II-37] | IC50 | µM | 0.074
CCC(c1ccc(C(F)F)nc1)n1cc(-c2cc(-c3ccc(C4CC4)nc3)n3nc(N)nc3c2)cn1 (single isomer, unassigned) [II-68] | IC50 | µM | 0.086
CC[C@@H](c1ccc(C(F)(F)F)nc1)n1cc(-c2cc(-c3ccc(=O)n(CC(F)(F)F)c3)n3nc(N)nc3c2)cn1 | IC50 | µM | 0.0054
Nc1nc2c(-c3cnn(CC(F)(F)F)c3)cc(-c3cnn(C4CCN(C5COC5)CC4)c3)cn2n1 | IC50 | µM | 0.14
Nc1nc2cc(-c3cnn(Cc4ccccc4)c3)cc(-c3cnn(C4CCOCC4)c3)n2n1 | IC50 | µM | 0.22
CC(C)c1nnc(-c2cc(-c3cnn(Cc4ccccc4)c3)cn3nc(N)nc23)s1 | IC50 | µM | 0.26
Nc1nc2c(-c3cc(CO)ccc3Cl)cc(-c3cnn(C(c4ccc(C(F)(F)F)nc4)C4CCOCC4)c3)cn2n1 (racemic) [II-4] | IC50 | µM | 0.0059
Nc1nc2cc(-c3cnn(C(c4ccc(C(F)(F)F)nc4)C4CCOCC4)c3)cc(-c3cnn(CC(F)(F)F)c3)n2n1 (stereo not drawn) [II-149] | IC50 | µM | 0.0047
Nc1nc2cc(-c3cnn(C(c4ccc(C(F)(F)F)nc4)C4CCOCC4)c3)cc(-c3ccc(=O)n(CC(F)(F)F)c3)n2n1 (single isomer, unassigned) [II-193] | IC50 | µM | 0.012
CCC(c1ccc(C(F)(F)F)nc1)n1cc(-c2cc(-c3ccc(C4CC4)nc3)n3nc(N)nc3c2)cn1 (single isomer, unassigned) [II-57] | IC50 | µM | 0.014
CC(C)C(c1ccc(C(F)(F)F)nc1)n1cc(-c2cc(-c3ccc(C4CC(F)(F)C4)nc3)n3nc(N)nc3c2)cn1 (single isomer, unassigned) [II-75] | IC50 | µM | 0.015
Nc1nc2c(-c3cc(CO)ccc3Cl)cc(-c3cnn(C(c4ccc(C(F)(F)F)nc4)C4CCOCC4)c3)cn2n1 (single isomer, unassigned) [II-6] | IC50 | µM | 0.0067
Nc1nc2cc(-c3cnn(C(c4ccc(C(F)(F)F)nc4)C4CCOCC4)c3)cc(-c3cn(CC(F)(F)F)c(=O)cn3)n2n1 (single isomer, unassigned) [II-196] | IC50 | µM | 0.05
CCC(c1ccc(C(F)(F)F)nc1)n1cc(-c2cc(-c3ccn(C)c(=O)c3)c3nc(N)nn3c2)cn1 (single isomer, unassigned) [II-170] | IC50 | µM | 0.22
CN(C)c1cccc(-c2cc(-c3cnn(C(c4ccc(C(F)(F)F)nc4)C4CCOCC4)c3)cn3nc(N)nc23)c1 (single isomer, unassigned) [II-23] | IC50 | µM | 0.0092
CCC(c1ccc(C(F)(F)F)cc1)n1cc(-c2cc(-c3cnn(CC(F)(F)F)c3)n3nc(N)nc3c2)cn1 (single isomer, unassigned) [II-131] | IC50 | µM | 0.165
CCC(c1ccc(C(F)(F)F)nc1)n1cc(-c2cc(-c3ccc(C4CC4)nc3)n3nc(N)nc3c2)cn1 (racemic) [II-55] | IC50 | µM | 0.024
CCC(c1ccc(C(F)(F)F)nc1)n1cc(-c2cc(-c3ccn(C)c(=O)c3)c3nc(N)nn3c2)cn1 (single isomer, unassigned) [II-171] | IC50 | µM | 0.041
